system: human HL60 cells; assay: SWATH-MS proteomics, differential protein representation, akirin2 KO vs WT HL60 cells; assay type: cell-based; details: Over-represented in KO; KO vs WT HL60 cells
Field: Log (Fold Change). Provide a value for each of the molecules that follow.
Numbers only.

molecule="sp¦O43396¦TXNL1_HUMAN (protein, UniProt O43396 2-289, looked up) Thioredoxin-like protein 1: VGVKPVGSDPDFQPELSGAGSRLAVVKFTMRGCGPCLRIAPAFSSMSNKYPQAVFLEVDVHQCQGTAATNNISATPTFLFFRNKVRIDQYQGADAVGLEEKIKQHLENDPGSNEDTDIPKGYMDLMPFINKAGCECLNESDEHGFDNCLRKDTTFLESDCDEQLLITVAFNQPVKLYSMKFQGPDNGQGPKYVKIFINLPRSMDFEEAERSEPTQALELTEDDIKEDGIVPLRYVKFQNVNSVTIFVQSNQGEEETTRISYFTFIGTPVQATNMNDFKRVVGKKGESH" test_result=0.1296
molecule="sp¦Q16543¦CDC37_HUMAN (protein, UniProt Q16543 1-378, looked up) Hsp90 co-chaperone Cdc37: MVDYSVWDHIEVSDDEDETHPNIDTASLFRWRHQARVERMEQFQKEKEELDRGCRECKRKVAECQRKLKELEVAEGGKAELERLQAEAQQLRKEERSWEQKLEEMRKKEKSMPWNVDTLSKDGFSKSMVNTKPEKTEEDSEEVREQKHKTFVEKYEKQIKHFGMLRRWDDSQKYLSDNVHLVCEETANYLVIWCIDLEVEEKCALMEQVAHQTIVMQFILELAKSLKVDPRACFRQFFTKIKTADRQYMEGFNDELEAFKERVRGRAKLRIEKAMKEYEEEERKKRLGPGGLDPVEVYESLPEELQKCFDVKDVQMLQDAISKMDPTDAKYHMQRCIDSGLWVPNSKASEAKEGEEAGPGDPLLEAVPKTGDEKDVSV" test_result=0.1187
molecule="sp¦P49458¦SRP09_HUMAN (protein, UniProt P49458 2-86, looked up) Signal recognition particle 9 …: PQYQTWEEFSRAAEKLYLADPMKARVVLKYRHSDGNLCVKVTDDLVCLVYKTDQAQDVKKIEKFHSQLMRLMVAKEARNVTMETE" test_result=0.1301
molecule="sp¦Q9BY43¦CHM4A_HUMAN (protein, UniProt Q9BY43 1-222, looked up) Charged multivesicular body …: MSGLGRLFGKGKKEKGPTPEEAIQKLKETEKILIKKQEFLEQKIQQELQTAKKYGTKNKRAALQALRRKKRFEQQLAQTDGTLSTLEFQREAIENATTNAEVLRTMELAAQSMKKAYQDMDIDKVDELMTDITEQQEVAQQISDAISRPMGFGDDVDEDELLEELEELEQEELAQELLNVGDKEEEPSVKLPSVPSTHLPAGPAPKVDEDEEALKQLAEWVS" test_result=0.1447
molecule="sp¦Q9Y3F4¦STRAP_HUMAN (protein, UniProt Q9Y3F4 1-350, looked up) Serine-threonine kinase …: MAMRQTPLTCSGHTRPVVDLAFSGITPYGYFLISACKDGKPMLRQGDTGDWIGTFLGHKGAVWGATLNKDATKAATAAADFTAKVWDAVSGDELMTLAHKHIVKTVDFTQDSNYLLTGGQDKLLRIYDLNKPEAEPKEISGHTSGIKKALWCSEDKQILSADDKTVRLWDHATMTEVKSLNFNMSVSSMEYIPEGEILVITYGRSIAFHSAVSLDPIKSFEAPATINSASLHPEKEFLVAGGEDFKLYKYDYNSGEELESYKGHFGPIHCVRFSPDGELYASGSEDGTLRLWQTVVGKTYGLWKCVLPEEDSGELAKPKIGFPETTEEELEEIASENSDCIFPSAPDVKA" test_result=0.1086

Next up:
Return reported Log (Fold Change); argument: sp¦P27348¦1433T_HUMAN (protein, UniProt P27348 1-245, looked up) 14-3-3 protein theta: MEKTELIQKAKLAEQAERYDDMATCMKAVTEQGAELSNEERNLLSVAYKNVVGGRRSAWRVISSIEQKTDTSDKKLQLIKDYREKVESELRSICTTVLELLDKYLIANATNPESKVFYLKMKGDYFRYLAEVACGDDRKQTIDNSQGAYQEAFDISKKEMQPTHPIRLGLALNFSVFYYEILNNPELACTLAKTAFDEAIAELDTLNEDSYKDSTLIMQLLRDNLTLWTSDSAGEECDAAEGAEN
0.1126
